Ref: patent US6841661B2

system: CL 4931, CL 5053, CL 5242 and CL 4877; assay type: cell-based, E. faecium, E. faecalis; design: unit not given here; conditions: mean of CL4931, CL5053, CL5242, CL4877; unit not given
Reported values of Mean for individual entries

- CNC(CC(C)C)C(=O)NC1C(=O)NC(CC(N)=O)C(=O)NC2C(=O)NC3C(=O)NC(C(=O)NC(C(=O)O)c4cc(O)cc(O)c4-c4cc3ccc4O)C(O)c3ccc(c(Cl)c3)Oc3cc2cc(c3OC2OC(CN3CCC(N(C)C)CC3)C(O)C(O)C2OC2CC(C)(NCc3ccc(OCc4ccc(Cl)c(Cl)c4)cc3)C(O)C(C)O2)Oc2ccc(cc2Cl)C1O (stereo not drawn): 22.0
- CNC(CC(C)C)C(=O)NC1C(=O)NC(CC(N)=O)C(=O)NC2C(=O)NC3C(=O)NC(C(=O)NC(C(=O)O)c4cc(O)cc(O)c4-c4cc3ccc4O)C(O)c3ccc(c(Cl)c3)Oc3cc2cc(c3OC2OC(CNC(=O)Cc3ccccc3)C(O)C(O)C2OC2CC(C)(NCc3ccc(OCc4ccc(Cl)c(Cl)c4)cc3)C(O)C(C)O2)Oc2ccc(cc2Cl)C1O (stereo not drawn): 6.6

Incoming: I have this molecule here, CNC(CC(C)C)C(=O)NC1C(=O)NC(CC(N)=O)C(=O)NC2C(=O)NC3C(=O)NC(C(=O)NC(C(=O)O)c4cc(O)cc(O)c4-c4cc3ccc4O)C(O)c3ccc(c(Cl)c3)Oc3cc2cc(c3OC2OC(CNCc3ccccc3)C(O)C(O)C2OC2CC(C)(NCc3ccc(OCc4ccc(Cl)c(Cl)c4)cc3)C(O)C(C)O2)Oc2ccc(cc2Cl)C1O (stereo not drawn) , and I need its recorded Mean.
Outgoing: 1.8

----------
test system: E. faecium CL 4931 (VanA); assay: microbe, parasite or virus in culture; format: cell-based; details: Tables 7 and 8; unit not given
readoutType: CL4931 (in vitro testing)
Give the value as a plain number.

• CNC(CC(C)C)C(=O)NC1C(=O)NC(CC(N)=O)C(=O)NC2C(=O)NC3C(=O)NC(C(=O)NC(C(=O)O)c4cc(O)cc(O)c4-c4cc3ccc4O)C(O)c3ccc(c(Cl)c3)Oc3cc2cc(c3OC2OC(CN3CCCCC3)C(O)C(O)C2OC2CC(C)(NCc3ccc(OCc4ccc(Cl)c(Cl)c4)cc3)C(O)C(C)O2)Oc2ccc(cc2Cl)C1O (stereo not drawn) = 32
• CCCNCC1OC(Oc2c3cc4cc2Oc2ccc(cc2Cl)C(O)C2NC(=O)C(NC(=O)C4NC(=O)C(CC(N)=O)NC(=O)C(NC(=O)C(CC(C)C)NC)C(O)c4ccc(c(Cl)c4)O3)c3ccc(O)c(c3)-c3c(O)cc(O)cc3C(C(=O)O)NC2=O)C(OC2CC(C)(NCc3ccc(OCc4ccc(Cl)c(Cl)c4)cc3)C(O)C(C)O2)C(O)C1O (stereo not drawn) = 8
• CNC(CC(C)C)C(=O)NC1C(=O)NC(CC(N)=O)C(=O)NC2C(=O)NC3C(=O)NC(C(=O)NC(C(=O)O)c4cc(O)cc(O)c4-c4cc3ccc4O)C(O)c3ccc(c(Cl)c3)Oc3cc2cc(c3OC2OC(CN)C(O)C(O)C2OC2CC(C)(NCc3ccc(C(=O)Oc4ccc(Cl)c(Cl)c4)cc3)C(O)C(C)O2)Oc2ccc(cc2Cl)C1O (stereo not drawn) = 8

Incoming: Item: CNC(CC(C)C)C(=O)NC1C(=O)NC(CC(N)=O)C(=O)NC2C(=O)NC3C(=O)NC(C(=O)NC(C(=O)O)c4cc(O)cc(O)c4-c4cc3ccc4O)C(O)c3ccc(c(Cl)c3)Oc3cc2cc(c3OC2OC(CN)C(O)C(O)C2OC2CC(C)(NCc3ccc(OCc4cc(Cl)ccc4Cl)cc3)C(O)C(C)O2)Oc2ccc(cc2Cl)C1O (stereo not drawn) Test system: E. faecium CL 4931 (VanA) Read-out: CL4931 (in vitro testing) Value: ?
Outgoing: 16

Incoming: Item: CNC(CC(C)C)C(=O)NC1C(=O)NC(CC(N)=O)C(=O)NC2C(=O)NC3C(=O)NC(C(=O)NC(C(=O)O)c4cc(O)cc(O)c4-c4cc3ccc4O)C(O)c3ccc(c(Cl)c3)Oc3cc2cc(c3OC2OC(CNC(=O)Cc3ccccc3)C(O)C(O)C2OC2CC(C)(NCc3ccc(OCc4ccc(Cl)c(Cl)c4)cc3)C(O)C(C)O2)Oc2ccc(cc2Cl)C1O (stereo not drawn) Test system: E. faecium CL 4931 (VanA) Read-out: CL4931 (in vitro testing) Value: ?
Outgoing: 8

Incoming: Item: CNC(CC(C)C)C(=O)NC1C(=O)NC(CC(N)=O)C(=O)NC2C(=O)NC3C(=O)NC(C(=O)NC(C(=O)O)c4cc(O)cc(O)c4-c4cc3ccc4O)C(O)c3ccc(c(Cl)c3)Oc3cc2cc(c3OC2OC(CN)C(O)C(O)C2OC2CC(C)(NCc3ccc(OCc4c(Cl)cccc4Cl)cc3)C(O)C(C)O2)Oc2ccc(cc2Cl)C1O (stereo not drawn) Test system: E. faecium CL 4931 (VanA) Read-out: CL4931 (in vitro testing) Value: ?
Outgoing: 16

Incoming: Item: CNC(CC(C)C)C(=O)NC1C(=O)NC(CC(N)=O)C(=O)NC2C(=O)NC3C(=O)NC(C(=O)NC(C(=O)O)c4cc(O)cc(O)c4-c4cc3ccc4O)C(O)c3ccc(c(Cl)c3)Oc3cc2cc(c3OC2OC(CNCC3CCCO3)C(O)C(O)C2OC2CC(C)(NCc3ccc(OCc4ccc(Cl)c(Cl)c4)cc3)C(O)C(C)O2)Oc2ccc(cc2Cl)C1O (stereo not drawn) Test system: E. faecium CL 4931 (VanA) Read-out: CL4931 (in vitro testing) Value: ?
Outgoing: 4

Incoming: Item: CN[C@H](CC(C)C)C(=O)N[C@H]1C(=O)N[C@@H](CC(N)=O)C(=O)N[C@H]2C(=O)N[C@H]3C(=O)N[C@H](C(=O)N[C@H](C(=O)O)c4cc(O)cc(O)c4-c4cc3ccc4O)[C@H](O)c3ccc(c(Cl)c3)Oc3cc2cc(c3O[C@@H]2O[C@H](CO)[C@@H](O)[C@H](O)[C@H]2O[C@H]2C[C@](C)(N)[C@H](O)[C@H](C)O2)Oc2ccc(cc2Cl)[C@H]1O [Vancomycin, vancomycin, reference compound] Test system: E. faecium CL 4931 (VanA) Read-out: CL4931 (in vitro testing) Value: ?
Outgoing: 2048

Incoming: Item: CNC(CC(C)C)C(=O)NC1C(=O)NC(CC(N)=O)C(=O)NC2C(=O)NC3C(=O)NC(C(=O)NC(C(=O)O)c4cc(O)cc(O)c4-c4cc3ccc4O)C(O)c3ccc(c(Cl)c3)Oc3cc2cc(c3OC2OC(CNCc3ccc(Cl)cc3)C(O)C(O)C2OC2CC(C)(NCc3ccc(OCc4ccc(Cl)c(Cl)c4)cc3)C(O)C(C)O2)Oc2ccc(cc2Cl)C1O (stereo not drawn) Test system: E. faecium CL 4931 (VanA) Read-out: CL4931 (in vitro testing) Value: ?
Outgoing: 8

Incoming: Item: CNC(CC(C)C)C(=O)NC1C(=O)NC(CC(N)=O)C(=O)NC2C(=O)NC3C(=O)NC(C(=O)NC(C(=O)O)c4cc(O)cc(O)c4-c4cc3ccc4O)C(O)c3ccc(c(Cl)c3)Oc3cc2cc(c3OC2OC(CNCc3ccco3)C(O)C(O)C2OC2CC(C)(NCc3ccc(OCc4ccc(Cl)c(Cl)c4)cc3)C(O)C(C)O2)Oc2ccc(cc2Cl)C1O (stereo not drawn) Test system: E. faecium CL 4931 (VanA) Read-out: CL4931 (in vitro testing) Value: ?
Outgoing: 8

Incoming: Item: CNC(CC(C)C)C(=O)NC1C(=O)NC(CC(N)=O)C(=O)NC2C(=O)NC3C(=O)NC(C(=O)NC(C(=O)O)c4cc(O)cc(O)c4-c4cc3ccc4O)C(O)c3ccc(c(Cl)c3)Oc3cc2cc(c3OC2OC(CN)C(O)C(O)C2OC2CC(C)(NCC(=O)Oc3ccc(-c4ccc(Cl)c(Cl)c4)cc3)C(O)C(C)O2)Oc2ccc(cc2Cl)C1O (stereo not drawn) Test system: E. faecium CL 4931 (VanA) Read-out: CL4931 (in vitro testing) Value: ?
Outgoing: 32

Incoming: Item: CNC(CC(C)C)C(=O)NC1C(=O)NC(CC(N)=O)C(=O)NC2C(=O)NC3C(=O)NC(C(=O)NC(C(=O)O)c4cc(O)cc(O)c4-c4cc3ccc4O)C(O)c3ccc(c(Cl)c3)Oc3cc2cc(c3OC2OC(CN3CCC(N(C)C)C3)C(O)C(O)C2OC2CC(C)(NCc3ccc(OCc4ccc(Cl)c(Cl)c4)cc3)C(O)C(C)O2)Oc2ccc(cc2Cl)C1O (stereo not drawn) Test system: E. faecium CL 4931 (VanA) Read-out: CL4931 (in vitro testing) Value: ?
Outgoing: 8

----------
system: CL 4931, CL 5053, CL 5242 and CL 4877; format: cell-based, E. faecium, E. faecalis; design: unit not given here; details: mean of CL4931, CL5053, CL5242, CL4877; unit not given
Output 1 (yes) for Mean not less than 8; output 0 (no) otherwise.

Solved entries:
• CNC(CC(C)C)C(=O)NC1C(=O)NC(CC(N)=O)C(=O)NC2C(=O)NC3C(=O)NC(C(=O)NC(C(=O)O)c4cc(O)cc(O)c4-c4cc3ccc4O)C(O)c3ccc(c(Cl)c3)Oc3cc2cc(c3OC2OC(CN)C(O)C(O)C2OC2CC(C)(NCc3ccc(OCc4ccc(Cl)c(Cl)c4)c(OC)c3)C(O)C(C)O2)Oc2ccc(cc2Cl)C1O (stereo not shown) = 0 (no)
• CNC(CC(C)C)C(=O)NC1C(=O)NC(CC(N)=O)C(=O)NC2C(=O)NC3C(=O)NC(C(=O)NC(C(=O)O)c4cc(O)cc(O)c4-c4cc3ccc4O)C(O)c3ccc(c(Cl)c3)Oc3cc2cc(c3OC2OC(CN)C(O)C(O)C2OC2CC(C)(NCc3ccc(OCc4cc(Cl)cc(Cl)c4)cc3)C(O)C(C)O2)Oc2ccc(cc2Cl)C1O (stereo not shown) = 0 (no)
• CNC(CC(C)C)C(=O)NC1C(=O)NC(CC(N)=O)C(=O)NC2C(=O)NC3C(=O)NC(C(=O)NC(C(=O)O)c4cc(O)cc(O)c4-c4cc3ccc4O)C(O)c3ccc(c(Cl)c3)Oc3cc2cc(c3OC2OC(CN)C(O)C(O)C2OC2CC(C)(NCc3ccc(OCc4ccc(C(=O)OC)cc4)cc3)C(O)C(C)O2)Oc2ccc(cc2Cl)C1O (stereo not shown) = 1 (yes)
• CNC(CC(C)C)C(=O)NC1C(=O)NC(CC(N)=O)C(=O)NC2C(=O)NC3C(=O)NC(C(=O)NC(C(=O)O)c4cc(O)cc(O)c4-c4cc3ccc4O)C(O)c3ccc(c(Cl)c3)Oc3cc2cc(c3OC2OC(CNCc3ccc(F)cc3)C(O)C(O)C2OC2CC(C)(NCc3ccc(OCc4ccc(Cl)c(Cl)c4)cc3)C(O)C(C)O2)Oc2ccc(cc2Cl)C1O (stereo not shown) = 0 (no)
• CNC(CC(C)C)C(=O)NC1C(=O)NC(CC(N)=O)C(=O)NC2C(=O)NC3C(=O)NC(C(=O)NC(C(=O)O)c4cc(O)cc(O)c4-c4cc3ccc4O)C(O)c3ccc(c(Cl)c3)Oc3cc2cc(c3OC2OC(CNCc3cccc(Cl)c3)C(O)C(O)C2OC2CC(C)(NCc3ccc(OCc4ccc(Cl)c(Cl)c4)cc3)C(O)C(C)O2)Oc2ccc(cc2Cl)C1O (stereo not shown) = 0 (no)

Now consider a different compound.
Incoming: Hello, I need to know if CNC(CC(C)C)C(=O)NC1C(=O)NC(CC(N)=O)C(=O)NC2C(=O)NC3C(=O)NC(C(=O)NC(C(=O)O)c4cc(O)cc(O)c4-c4cc3ccc4O)C(O)c3ccc(c(Cl)c3)Oc3cc2cc(c3OC2OC(CNCC3CCCCO3)C(O)C(O)C2OC2CC(C)(NCc3ccc(OCc4ccc(Cl)c(Cl)c4)cc3)C(O)C(C)O2)Oc2ccc(cc2Cl)C1O (stereo not shown) has measured Mean not below 8. Thanks!
Outgoing: 1 (yes)
